Each recorded value in this set is attributed to patent US20170174769A1.

- Tested On: T1, extracellular domain of human FGFR1c expressed with C-terminal V5 and hexahistidine tags (human, UniProt P11362 22-376)
- T1 construct: also called hFGFR1c-V5-6His
- T1 sequence: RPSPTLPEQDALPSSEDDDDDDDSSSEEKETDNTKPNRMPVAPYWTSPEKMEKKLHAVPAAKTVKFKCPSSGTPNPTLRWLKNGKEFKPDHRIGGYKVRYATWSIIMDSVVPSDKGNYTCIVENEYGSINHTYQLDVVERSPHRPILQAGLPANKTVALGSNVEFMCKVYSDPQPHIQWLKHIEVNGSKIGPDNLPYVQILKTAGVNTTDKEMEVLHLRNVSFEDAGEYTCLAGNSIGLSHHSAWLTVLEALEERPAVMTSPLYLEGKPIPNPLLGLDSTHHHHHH
- Assay Method Text: SPR, mAb captured, 37 C
Reported Endpoint: 180 nM hFGFR1c-V5-6His Bind (RU)
Write the answer as a number in RU, unit excluded.

Examples from the recorded data:
H2aM8092N (antibody, V domains shown, mouse IgG2 Fc (H2aM prefix); also called H2M8092N) VH: QVQLQESGPGLVKPSETLSLTCTVSGGSISSYYWSWIRQPPGKGLDWIGHIYYSGTTYYNPSLKSRVSISLDTSKNQFSLKLSSVTAADTAVYYCARHLRGYSSGREFDYWGQGTLVTVSS VL: DIQMTQSPSSLSASVGGRVSLTCRASQSIFSYLNWYQQKPGKAPKLLIYAASNLQSGVPSRFSGSGSGTDFTLTISSLQPEDFATYSCQQSYNIPYTFGQGTKLEIK
0.5
H4H8871P (antibody, V domains shown, human IgG4 Fc (H4H prefix)) VH: QVQLQESGPGLVKPSETLSLTCTVSGASISSYYWSWIRQPPGKGLEWIGYIYSSGIIKYNPSLKSRVTISADTSKNQFSLKLSSVTAADTAVYYCARHGIFGVMEYFQRWGQGTLVTVSS VL: DIQMTQSPSSLSASIGDRVTITCQASQDIGNFLNWYHQKPGKAPTLLIYDASNMETGVPSRFRGSGSGTYFTFIISSLQPEDVATYYCQQYDNLPLTFGGGTKVEIK
-1.4

Reported 180 nM hFGFR1c-V5-6His Bind (RU) for H4H8880P (antibody, V domains shown, human IgG4 Fc (H4H prefix)) VH: EVQLVESGGGVVQPGGSLRLSCAASGFTFSLYAMSWVRQAPGKGLEWVSAISGSAHGAYYADSVKGRFTISRDNSKNSLYLQMNSLRAEDTAIYYCAKDLVIAVAGTFDYWGQGTLVTVSS VL: DIQMTQSPSSLSASVGDRVTITCRASQIISTYLNWYQQKPGKAPKILIYTASSLKSGVPSRFSGSGSGTDFTLTISSLQPEDFATYYCQQTYSSPRFTFGPGTKVDIK was 0.1

Reported 180 nM hFGFR1c-V5-6His Bind (RU) for H4H8881P (antibody, V domains shown, human IgG4 Fc (H4H prefix)) VH: QVQLVQSGAEVKKPGASVKVSCKASGYTFTSYVIHWVRQAPGQRLEWMGWSNAANGDTKYSQEFQDRVTFTRDTSASTAYMELSSLRSEDMAVYYCARWNWNYGAFDIWGQGTMVTVSS VL: DIQMTQSPSSLSASVGDRVTITCQASQDINNYLHWYQQKSGKAPNLLIYDASILETGVPSRFSGSGSGTDFTFTISSLQPEDIATYYCQQYDNLPYTFGQGTKLEIK was 0

Reported 180 nM hFGFR1c-V5-6His Bind (RU) for H2aM8091N (antibody, V domains shown, mouse IgG2 Fc (H2aM prefix); also called H2M8091N) VH: QVQLVQSGADMKKPGASVKVSCKASGYTFTTYGINWVRQAPGQGLEWMGWISAYSGITNYAQSFQGRVTMTTDTSTSTAYMELRSLRSDDTAVYYCARGGYNWATGDYFDYWGQGTLVTVSS VL: DIQMTQSPSTLSASIGDRVTITCRASQSISSWLAWYQQKPGKAPKFLIYKASSLASGVPSRFSGSGSGTEFTLTISSLQPDDFATYYCQQYDSYSPYTFGQGTKVEIK was -1.3
